Numbers sourced from patent EP0859607B1.

# ASSAY TARGET: human plasmin (Homo sapiens, UniProt P00747)
# Sequence (P00747 581-810 limits assumed): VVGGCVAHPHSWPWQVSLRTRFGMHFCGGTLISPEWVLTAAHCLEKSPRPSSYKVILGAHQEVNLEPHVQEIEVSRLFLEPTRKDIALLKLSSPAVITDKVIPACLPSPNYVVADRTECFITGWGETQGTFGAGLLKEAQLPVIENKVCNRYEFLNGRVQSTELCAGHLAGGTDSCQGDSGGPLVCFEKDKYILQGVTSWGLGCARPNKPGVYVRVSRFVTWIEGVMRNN
# Sequence (P00747 97-580 partner limits assumed): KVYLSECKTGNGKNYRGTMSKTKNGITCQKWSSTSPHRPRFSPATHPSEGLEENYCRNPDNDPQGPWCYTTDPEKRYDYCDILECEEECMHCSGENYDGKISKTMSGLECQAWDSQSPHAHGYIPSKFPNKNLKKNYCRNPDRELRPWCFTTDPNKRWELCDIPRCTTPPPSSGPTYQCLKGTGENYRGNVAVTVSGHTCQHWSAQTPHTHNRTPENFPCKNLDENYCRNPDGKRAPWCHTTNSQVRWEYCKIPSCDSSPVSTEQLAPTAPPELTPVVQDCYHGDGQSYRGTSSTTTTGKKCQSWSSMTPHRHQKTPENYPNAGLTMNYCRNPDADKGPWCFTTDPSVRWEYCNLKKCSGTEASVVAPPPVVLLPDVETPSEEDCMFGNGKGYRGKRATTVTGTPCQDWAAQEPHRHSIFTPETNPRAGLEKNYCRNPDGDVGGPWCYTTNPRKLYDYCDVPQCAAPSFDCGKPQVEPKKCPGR
Where a name gives a salt, the structure may show the parent alone.
VALUE KIND: pKi
Formally, pKi is defined as -log10 of the concentration c, with c in mol/L.

# value of pKi, human plasmin (Homo sapiens, UniProt P00747), item N=C(N)N1CCN(CCOc2cccc(OS(=O)(=O)c3ccccc3Cl)c2)CC1 [Example 5, diacetic acid salt] = 4.53

* * *

# ASSAY TARGET: bovine α-chymotrypsin (Bos taurus, UniProt P00766)
Structures can show the parent of a compound that is named as a salt.
VALUE KIND: pKi
Formally, pKi is defined as -log10 of the concentration c, with c in mol/L.

# value of pKi, bovine α-chymotrypsin (Bos taurus, UniProt P00766), item N=C(N)N1CCC(COc2cc(OS(=O)(=O)c3ccccc3Cl)ccc2Cc2ccccc2)CC1 [Example 12, acetic acid salt] = 4.90
